// data source = patent US20060160070A1

- STUDY TARGET: HLA A*2402 (Homo sapiens, UniProt P04439, D101N/D140Y/D185E/E176V/E190D/F33S/G103R/G107R/I119L/I121M/I306V/K335N/L105A/L180Q/L300P/N151K/N90K/Q86E/Q94H/R106L/R138H/R89G/T104I/T345S/V100E/W191G/Y123F)
- EXPERIMENT DESCRIPTION: Multi-parametric analysis iScore
- Type: binding
- Design: scale not given here
- REPORTED CONDITIONS: index integrating t1/2 and ED50
Would you mind telling me the reported iScore of each entry?
When you answer, write just the number.

// iScore lookup, key: 155 (HNEWTLELL; HIV) [compound 155]
0

// iScore lookup, key: ALFYKLDVV [compound 72]
0

// iScore lookup, key: VTLTEEAEL [compound 156]
0

// iScore lookup, key: YNEWTLELL [compound 22]
0.071

// iScore lookup, key: RGRQKVVSI [compound 153]
0.050

// iScore lookup, key: CSSNITGLL [compound 69]
0.016

// iScore lookup, key: RGRQKVVSL [compound 68]
0

// iScore lookup, key: 70 (VPLTEEAEL; HIV) [compound 70]
0

// iScore lookup, key: KLAGRWPVK [compound 71]
0

// iScore lookup, key: ALFYKLDVI [compound 158]
0.339

// iScore lookup, key: CSSNITGLI [compound 154]
0.038

// iScore lookup, key: FPRIWLHGL [compound 152]
0

// iScore lookup, key: KLAGRWPVT [compound 157]
0

* * *

- STUDY TARGET: HLA B*0702 (Homo sapiens, UniProt P01889)
- Construct: purchased
- EXPERIMENT DESCRIPTION: ITOPIA peptide binding assay
- REPORTED CONDITIONS: 1.11×10^−4M of peptide
- Experimental: Peptide binding, off-rate and affinity were measured according to the protocols described in the ITOPIA Epitope Discovery System Customer Guide. […] Determinations were performed in duplicate using an ELISA plate reader. […] The off-rate assay used evaluates the dissociation of previously bound peptide at defined time points (expressed as the t1/2 value). […]
Would you mind telling me the reported level of binding, percent of positive control peptide binding of each entry?

// level of binding, percent of positive control peptide binding lookup, key: KLAGRWPVK [compound 71]
0% of positive control

// level of binding, percent of positive control peptide binding lookup, key: FPRIWLHGL [compound 152]
132% of positive control

// level of binding, percent of positive control peptide binding lookup, key: 155 (HNEWTLELL; HIV) [compound 155]
1% of positive control

// level of binding, percent of positive control peptide binding lookup, key: VTLTEEAEL [compound 156]
0% of positive control

// level of binding, percent of positive control peptide binding lookup, key: RGRQKVVSI [compound 153]
88% of positive control

// level of binding, percent of positive control peptide binding lookup, key: ALFYKLDVI [compound 158]
3% of positive control

// level of binding, percent of positive control peptide binding lookup, key: 70 (VPLTEEAEL; HIV) [compound 70]
4% of positive control

// level of binding, percent of positive control peptide binding lookup, key: RGRQKVVSL [compound 68]
96% of positive control

// level of binding, percent of positive control peptide binding lookup, key: CSSNITGLI [compound 154]
5% of positive control

// level of binding, percent of positive control peptide binding lookup, key: ALFYKLDVV [compound 72]
3% of positive control

// level of binding, percent of positive control peptide binding lookup, key: CSSNITGLL [compound 69]
5% of positive control

// level of binding, percent of positive control peptide binding lookup, key: KLAGRWPVT [compound 157]
3% of positive control

// level of binding, percent of positive control peptide binding lookup, key: YNEWTLELL [compound 22]
2% of positive control
